target: GABAA α3β3γ2 (Rattus norvegicus, UniProt P18508+P20236+P63079); experiment: voltage clamp of Xenopus oocytes, potentiation of GABA-induced currents
Sequence (P20236 29-493): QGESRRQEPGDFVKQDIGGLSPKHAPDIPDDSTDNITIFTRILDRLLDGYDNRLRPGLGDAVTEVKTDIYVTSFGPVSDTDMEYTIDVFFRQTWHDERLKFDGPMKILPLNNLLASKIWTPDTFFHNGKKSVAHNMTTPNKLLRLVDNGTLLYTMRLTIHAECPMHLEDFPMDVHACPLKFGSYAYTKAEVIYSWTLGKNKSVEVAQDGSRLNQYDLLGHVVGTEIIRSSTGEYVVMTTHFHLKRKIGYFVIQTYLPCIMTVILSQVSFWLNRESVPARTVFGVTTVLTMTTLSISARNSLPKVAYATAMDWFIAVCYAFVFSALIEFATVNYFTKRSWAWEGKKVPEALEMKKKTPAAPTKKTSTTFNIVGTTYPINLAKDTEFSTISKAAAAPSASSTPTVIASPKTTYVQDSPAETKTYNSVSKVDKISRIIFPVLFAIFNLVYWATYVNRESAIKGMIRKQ
Sequence (P63079 26-473): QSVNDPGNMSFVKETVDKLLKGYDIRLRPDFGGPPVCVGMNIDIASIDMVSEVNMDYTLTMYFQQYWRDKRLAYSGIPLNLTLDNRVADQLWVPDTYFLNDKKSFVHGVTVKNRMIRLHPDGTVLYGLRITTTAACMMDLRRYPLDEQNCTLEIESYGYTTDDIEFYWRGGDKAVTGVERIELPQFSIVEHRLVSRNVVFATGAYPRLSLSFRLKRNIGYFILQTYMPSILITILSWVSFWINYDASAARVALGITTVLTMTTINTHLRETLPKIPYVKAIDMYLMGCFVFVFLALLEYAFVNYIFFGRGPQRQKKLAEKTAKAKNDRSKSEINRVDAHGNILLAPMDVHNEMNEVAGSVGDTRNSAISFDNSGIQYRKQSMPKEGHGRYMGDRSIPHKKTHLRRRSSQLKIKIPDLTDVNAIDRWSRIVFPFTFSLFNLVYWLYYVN
Sequence (P18508 39-466): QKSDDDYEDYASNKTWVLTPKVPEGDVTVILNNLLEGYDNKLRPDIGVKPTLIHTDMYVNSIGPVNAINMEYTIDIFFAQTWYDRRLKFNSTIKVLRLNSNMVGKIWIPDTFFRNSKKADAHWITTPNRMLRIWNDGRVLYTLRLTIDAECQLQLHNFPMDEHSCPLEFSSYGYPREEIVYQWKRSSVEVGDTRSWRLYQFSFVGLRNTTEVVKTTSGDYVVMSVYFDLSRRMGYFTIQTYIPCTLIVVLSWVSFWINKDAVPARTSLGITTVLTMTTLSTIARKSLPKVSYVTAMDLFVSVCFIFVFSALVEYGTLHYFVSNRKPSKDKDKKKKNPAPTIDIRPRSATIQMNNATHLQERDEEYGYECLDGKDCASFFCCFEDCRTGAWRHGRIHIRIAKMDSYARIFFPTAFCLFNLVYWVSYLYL
metric: pEC50
Answers are plain numbers, as −log10 of the molar value.

Looking up CCOC(=O)c1cc(NC(=O)N(c2ccccc2)c2ccccc2)c2c(Cl)cc(Cl)cc2n1 [DCUK-OEt] , I found its pEC50 recorded as 6.89

====

target: GABAA α3β2γ2 (Rattus norvegicus, UniProt P18508+P20236+P63138); experiment: voltage clamp of Xenopus oocytes, potentiation of GABA-induced currents
Sequence (P63138 26-474, one chain of several): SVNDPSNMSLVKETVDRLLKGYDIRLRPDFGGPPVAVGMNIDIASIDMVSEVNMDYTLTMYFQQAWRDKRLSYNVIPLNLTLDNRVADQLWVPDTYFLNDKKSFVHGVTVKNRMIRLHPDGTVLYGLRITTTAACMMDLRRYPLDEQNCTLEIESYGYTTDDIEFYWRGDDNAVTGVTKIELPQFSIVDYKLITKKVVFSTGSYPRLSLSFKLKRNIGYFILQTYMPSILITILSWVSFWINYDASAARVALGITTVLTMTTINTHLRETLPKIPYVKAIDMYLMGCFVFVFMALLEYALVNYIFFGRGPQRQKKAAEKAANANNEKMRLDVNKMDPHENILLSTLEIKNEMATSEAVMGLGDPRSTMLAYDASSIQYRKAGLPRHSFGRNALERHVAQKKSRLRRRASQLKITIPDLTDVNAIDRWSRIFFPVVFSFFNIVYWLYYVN
metric: pEC50
Give bare numbers, as −log10 of the molar value.

Looking up CCOC(=O)c1cc(NC(=O)N(c2ccccc2)c2ccccc2)c2c(Cl)cc(Cl)cc2n1 , I found its pEC50 recorded as 6.42
